Molecular target: Neuromedin-U receptor 2 (Homo sapiens, UniProt Q9GZQ4)
Sequence (Q9GZQ4 whole entry): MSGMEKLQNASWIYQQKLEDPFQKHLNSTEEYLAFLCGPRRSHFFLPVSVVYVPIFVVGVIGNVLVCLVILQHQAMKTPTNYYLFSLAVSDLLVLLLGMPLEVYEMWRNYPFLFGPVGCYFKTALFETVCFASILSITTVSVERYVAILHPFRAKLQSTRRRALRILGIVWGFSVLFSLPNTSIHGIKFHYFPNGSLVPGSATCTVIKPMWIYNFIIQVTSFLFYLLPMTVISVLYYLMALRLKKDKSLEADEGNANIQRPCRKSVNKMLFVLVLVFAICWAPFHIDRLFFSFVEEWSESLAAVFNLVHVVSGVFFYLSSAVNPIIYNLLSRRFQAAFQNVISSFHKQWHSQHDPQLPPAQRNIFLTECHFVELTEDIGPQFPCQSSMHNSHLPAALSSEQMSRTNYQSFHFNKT
Assay: Agonist activity at human NMUR2 expressed in HEK293 cells assessed as induction of IP3 levels at 10^-5 M using myo-[2-3H(N)]-inositol after 60 mins by SPA-based topcount assay relative to NMU-8
Assay type: functional, cell-based
Square brackets hold non-standard residues; d marks the D form. Peptide text beside a SMILES is read from it. Tic(7-OH) = O=C(O)[C@@H]1Cc2ccc(O)cc2CN1; Dmt = Cc1cc(O)cc(C)c1C[C@H](N)C(=O)O
endpoint.label: Emax (%)
Give bare numbers, in %.

Answered cases to consult:
CC(=O)N[C@H](Cc1ccc(O)cc1)C(=O)N[C@@H](Cc1ccccc1)C(=O)N[C@@H](CC(C)C)C(=O)N[C@@H](Cc1ccccc1)C(=O)N[C@@H](CCCNC(=N)N)C(=O)N1CCC[C@H]1C(=O)N[C@@H](CCCNC(=N)N)C(=O)N[C@@H](CC(N)=O)C(N)=O: 99
Cc1cc(O)cc(C)c1C[C@H](NC(=O)[C@H](CC(C)C)NC(=O)[C@H](Cc1ccccc1)NC(=O)[C@@H](N)Cc1ccc(O)cc1)C(=O)N[C@@H](CCCNC(=N)N)C(=O)N1CCC[C@H]1C(=O)N[C@@H](CCCNC(=N)N)C(=O)N[C@@H](CC(N)=O)C(N)=O (H-YFL[Dmt]RPRN-NH2): 103
CC(=O)N[C@@H](Cc1ccc(O)cc1)C(=O)N[C@@H](Cc1ccccc1)C(=O)N[C@@H](CC(C)C)C(=O)N1Cc2cc(O)ccc2C[C@H]1C(=O)N[C@@H](CCCNC(=N)N)C(=O)N1CCC[C@H]1C(=O)N[C@@H](CCCNC(=N)N)C(=O)N[C@@H](CC(N)=O)C(N)=O (Ac-YFL[Tic(7-OH)]RPRN-NH2): 86.1

API: the following record is the query input.
Given item CC(C)C[C@H](NC(=O)[C@H](Cc1ccccc1)NC(=O)[C@@H](N)Cc1ccc(O)cc1)C(=O)N[C@@H](Cc1ccccc1)C(=O)N[C@@H](CCCNC(=N)N)C(=O)N1CCC[C@@H]1C(=O)N[C@@H](CCCNC(=N)N)C(=O)N[C@@H](CC(N)=O)C(N)=O , the value recorded as its Emax is 111

Reference source for all entries: ChEMBL document CHEMBL4145476
